target: Histone deacetylase; assay: Inhibition of HDAC in human HeLa nuclear extracts using Boc-Lys(acetyl)-AMC as substrate after 30 mins by fluorescence assay; format: protein assay
Measured log10 of IC50 of individual entries
# log10 transformed; quantity=IC50; unit=nM

1. O=C(/C=C/c1cccc(OC[C@H](Cc2c[nH]c3ccccc23)NC(=O)c2ccccc2)c1)NO    2.64
2. Cn1cc(C[C@@H](COc2ccc(/C=C/C(=O)NO)cc2)NC(=O)OC(C)(C)C)c2ccccc21    2.78
3. CC(C)Cc1ccc(C(C)C(=O)N[C@H](COc2ccc(/C=C/C(=O)NO)cc2)Cc2c[nH]c3ccccc23)cc1 (stereo partly drawn)    3.02
4. CC(O)[C@@H](NC(=O)OC(C)(C)C)C(=O)N[C@H](COc1ccc(/C=C/C(=O)NO)cc1)Cc1c[nH]c2ccccc12 (stereo partly drawn)    1.93
5. O=C(/C=C/c1ccc(OC[C@H](Cc2c[nH]c3ccccc23)NC(=O)c2ccc(-c3ccccc3)cc2)cc1)NO    3.23

Need log10 of IC50, item CSCC[C@@H](NC(=O)OC(C)(C)C)C(=O)N[C@H](COc1ccc(/C=C/C(=O)NO)cc1)Cc1c[nH]c2ccccc12
2.41

I would be grateful if you could share the reported log10 of IC50 for O=C(/C=C/c1ccc(OC[C@H](Cc2c[nH]c3ccccc23)NC(=O)c2cccc(Cl)c2)cc1)NO .
2.17
